B1: tRNA (parent)
chain: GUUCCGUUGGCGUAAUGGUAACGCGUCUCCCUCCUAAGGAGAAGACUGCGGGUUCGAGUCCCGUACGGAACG

variants of: B1; assay: yeast fitness, log relative to wild type (ln ratio); higher = fitter; tRNA-Arg(CCU), competitive growth, 37 C, 1 M NaCl
Decision: yeast fitness (ln) compared against -0.2; not below it gives Criterion met, below it gives Criterion not met.

Record excerpt, results attached:
macromoleculeSequence	class
GUUCCUUUGGCGUAAUGGUAACGCGUCUCCCUCCUAAGGAGAAGACUGCGGGUUCGAGUCCCGUAAGGAGCG [G6U C66A A70G]	Criterion met
GUUCCUUUGGCGUAAUGGUAACGCGUUUCCCUCCUAAGGAGACGAUUGCGGGUUCGAGUCCCGUAUGGGGCG [G6U C27U A43C C46U C66U A69G A70G]	Criterion not met
GGUCCGUUGGCGUAAUGGUAACGCGUCUCCCUCCUAAGGAGAAGAUUGCGGGUUCGAGUCCCGUACGGAUUG [U2G C46U A70U C71U]	Criterion met

Exercise: Answer whether yeast fitness (ln) of GCUCCGUUGGCGUAAUGGUAACGCGUCUCCCUCCUAAGGAGACGAUUGCGGGUUCGAGUCCCGUAUGGGGUG [U2C A43C C46U C66U A69G A70G C71U] is greater than or equal to -0.2.
Solution: Criterion not met

Exercise: Answer whether yeast fitness (ln) of AGUCCGUUGGCGUAAUGGUAACGCGUUUCCCUCCUAAGGAGACGACUGCGGGUUCGAGUCCCGUAUGGAGCG [G1A U2G C27U A43C C66U A70G] is greater than or equal to -0.2.
Solution: Criterion not met

Exercise: Answer whether yeast fitness (ln) of GUUCCUUUGGCGUAAUGGUAACGCGUUUCCCUCCUAAGGAGACGACUGCGGGUUCGAGUCCCGUAAGGAGUG [G6U C27U A43C C66A A70G C71U] is greater than or equal to -0.2.
Solution: Criterion not met

Exercise: Answer whether yeast fitness (ln) of AUUCCGUUGGCGUAAUGGUAACGCGUUUCCCUCCUAAGGAGACGACUGCGGGUUCGAGUCCCGUAAGGGUUG [G1A C27U A43C C66A A69G A70U C71U] is greater than or equal to -0.2.
Solution: Criterion not met

Exercise: Answer whether yeast fitness (ln) of GCUCCGUUGGCGUAAUGGUAACGCGUUUCCCUCCUAAGGAGAAGAUUGCGGGUUCGAGUCCCGUAAGGGUUG [U2C C27U C46U C66A A69G A70U C71U] is greater than or equal to -0.2.
Solution: Criterion not met
